The following compounds are shown together with reported pIC50 values.
Experiment: Cell growth assay, WST-8 (compounds B1-B126)
Type: cell-based
Settings: 96 h; T47D cell line, WST-8, 4 days; read-out: Cell growth inhibition in T47D cell line IC50
Procedure: Cell Growth Assay. The cells are seeded at certain concentration (e.g., at 1500/well) in multi-well plates overnight. Cells are subsequently treated with the compounds. […] The absorbance is measured on each sample using a microplate reader at certain wavelength (e.g., 450 nm). The relative absorbance is calculated against the vehicle control from three individually repeats. Cell Growth Assay. […] The absorbance was measured of each sample using a microplate reader at a wavelength of 450 nm. […]
pIC50: −log10 of the molar value.
Property: pIC50

[[record]]
compound = "C[C@@H]1Cc2c(ccc3[nH]ncc23)[C@@H](c2c(F)cc(N3CCC(CN4CCN5c6ccc7c(c6N(C)C[C@@H]5C4)CN(C4CCC(=O)NC4=O)C7=O)CC3)cc2F)N1CC(F)F (some centres unmarked) [Compound B30]"
property = "pIC50"
recorded_measurement = "8.00 to 9.00"

[[record]]
compound = "C[C@@H]1Cc2c(ccc3[nH]ncc23)[C@@H](c2ccc(N3CCC4(CC3)CC(CN3CCN5c6ccc(C(=O)N[C@H]7CCC(=O)NC7=O)nc6OC[C@H]5C3)CO4)cn2)N1CC(F)(F)F (some centres unmarked) [Compound B93]"
property = "pIC50"
recorded_measurement = "8.00 to 9.00"

[[record]]
compound = "C[C@@H]1Cc2c(ccc3[nH]ncc23)[C@@H](c2c(F)cc(N3CCN(CC(=O)N4CCN5c6cc7c(cc6OC[C@@H]5C4)C(=O)N(C4CCC(=O)NC4=O)C7)CC3)cc2F)N1CC(F)F (some centres unmarked) [Compound B32]"
property = "pIC50"
recorded_measurement = "> 9.00"

[[record]]
compound = "COc1c2c(cc3c1CN(C1CCC(=O)NC1=O)C3=O)CN(CC(=O)N1CCC3(CC1)CCN(c1ccc([C@@H]4c5ccc6[nH]ncc6c5C[C@@H](C)N4CC(F)(F)F)nc1)CC3)C2 (some centres unmarked) [Compound B75]"
property = "pIC50"
recorded_measurement = "> 9.00"

[[record]]
compound = "C[C@@H]1Cc2c(ccc3[nH]ncc23)[C@@H](c2ccc(N3CCC4(CCC(CN5CCC6(CC5)COc5c6ccc6c5CN([C@H]5CCC(=O)NC5=O)C6=O)CO4)CC3)nn2)N1CC(F)(F)F (some centres unmarked) [Compound B128]"
property = "pIC50"
recorded_measurement = "> 9.00"


###

target: ER (Homo sapiens, UniProt P03372); construct: endogenous in cells; probably T47D or MCF-7; test: In-cell western blot analysis, relative ER percentage (compounds B1-B126); format: cell-based; settings: ER degradation, 16 hours, read-out: ICW DC50
Property: DC50

[[record]]
compound = "C[C@@H]1Cc2c(ccc3[nH]ncc23)[C@@H](c2c(F)cc(NC3CN(C(=O)CN4CCN5c6cc7c(cc6OC[C@@H]5C4)C(=O)N(C4CCC(=O)NC4=O)C7)C3)cc2F)N1CC(F)F (some centres unmarked)"
target_entity = "ER (Homo sapiens, UniProt P03372)"
recorded_measurement = "< 10 nM"

[[record]]
compound = "C[C@H]1Cc2c(ccc3[nH]ncc23)[C@H](c2cnc(N3CCC4(CC3)CC(CN3CCN5c6cc7c(cc6OC[C@H]5C3)C(=O)N(C3CCC(=O)NC3=O)C7)C4)nc2)N1CC(F)(F)F (some centres unmarked)"
target_entity = "ER (Homo sapiens, UniProt P03372)"
recorded_measurement = "10 to 100 nM"

[[record]]
compound = "COc1c2c(cc3c1CN(C1CCC(=O)NC1=O)C3=O)CN(CC(=O)N1CC3(CCN(c4cc(F)c([C@@H]5c6ccc7[nH]ncc7c6C[C@@H](C)N5CC(F)F)c(F)c4)CC3)C1)C2 (some centres unmarked)"
target_entity = "ER (Homo sapiens, UniProt P03372)"
recorded_measurement = "10 to 100 nM"

[[record]]
compound = "C[C@@H]1Cc2c(ccc3[nH]ncc23)[C@@H](c2c(F)cc(N3CC4(CN(CC(=O)N5CCN6c7ccc8c(c7OC[C@H]6C5)CN(C5CCC(=O)NC5=O)C8=O)C4)C3)cc2F)N1CC(F)F (some centres unmarked)"
target_entity = "ER (Homo sapiens, UniProt P03372)"
recorded_measurement = "< 10 nM"

[[record]]
compound = "COc1c2c(cc3c1CN(C1CCC(=O)NC1=O)C3=O)CN(CC(=O)N1CCC3(CC1)CCN(c1cc(F)c([C@@H]4c5ccc6[nH]ncc6c5C[C@@H](C)N4CC(F)F)c(F)c1)CC3)C2 (some centres unmarked)"
target_entity = "ER (Homo sapiens, UniProt P03372)"
recorded_measurement = "< 10 nM"


###

Assay: Cell growth assay, WST-8 (compounds B1-B126)
Format: cell-based
Conditions: 96 h; T47D cell line, WST-8, 4 days; read-out: Cell growth inhibition in T47D cell line IC50
Procedure: Cell Growth Assay. The cells are seeded at certain concentration (e.g., at 1500/well) in multi-well plates overnight. Cells are subsequently treated with the compounds. […] The absorbance is measured on each sample using a microplate reader at certain wavelength (e.g., 450 nm). The relative absorbance is calculated against the vehicle control from three individually repeats. Cell Growth Assay. […] The absorbance was measured of each sample using a microplate reader at a wavelength of 450 nm. […]
The following molecules are shown together with reported IC50 values.
Property: IC50

[[record]]
molecule = "C[C@@H]1Cc2c(ccc3[nH]ncc23)[C@@H](c2ccc(N3CC4(CC(CN5CCN6c7cc8c(cc7OC[C@@H]6C5)C(=O)N(C5CCC(=O)NC5=O)C8)CO4)C3)cn2)N1CC(F)(F)F (stereo partly shown)"
recorded_measurement = "< 1 nM"

[[record]]
molecule = "C[C@@H]1Cc2c(ccc3[nH]ncc23)[C@@H](c2ccc(N3CCC4(CC3)CC(CN3CCN5c6ccc7c(c6OC[C@H]5C3)CN(C3CCC(=O)NC3=O)C7=O)CO4)cn2)N1CC(F)(F)F (stereo partly shown)"
recorded_measurement = "1 to 10 nM"

[[record]]
molecule = "C[C@@H]1Cc2c(ccc3[nH]ncc23)[C@@H](c2c(F)cc(NC3CN(C(=O)CN4CCN5c6ccc7c(c6OC[C@H]5C4)CN(C4CCC(=O)NC4=O)C7=O)C3)cc2F)N1CC(F)F (stereo partly shown)"
recorded_measurement = "1 to 10 nM"

[[record]]
molecule = "C[C@@H]1Cc2c(ccc3[nH]ncc23)[C@@H](c2ccc(N3CCC4(CCN(CC(=O)N5Cc6cc7c(cc6C5)C(=O)N(C5CCC(=O)NC5=O)C7=O)CC4)CC3)cn2)N1CC(F)(F)F (stereo partly shown)"
recorded_measurement = "> 10 nM"

[[record]]
molecule = "C[C@@H]1Cc2c(ccc3[nH]ncc23)[C@@H](c2ccc(N3CC4(CC(CN5CCN6c7ccc8c(c7OC[C@H]6C5)CN(C5CCC(=O)NC5=O)C8=O)CO4)C3)cn2)N1CC(F)(F)F (stereo partly shown)"
recorded_measurement = "< 1 nM"

[[record]]
molecule = "C[C@@H]1Cc2c(ccc3[nH]ncc23)[C@@H](c2ccc(N3CC4(CCC(CN5CCC6(CC5)COc5c6ccc6c5CN(C5CCC(=O)NC5=O)C6=O)CC4)C3)cn2)N1CC(F)(F)F (stereo partly shown)"
recorded_measurement = "< 1 nM"

[[record]]
molecule = "C[C@@H]1Cc2c(ccc3[nH]ncc23)[C@@H](c2c(F)cc(N3CC4(CN(C(=O)CN5CCN6c7cc8c(cc7OC[C@@H]6C5)C(=O)N(C5CCC(=O)NC5=O)C8)C4)C3)cc2F)N1CC(F)F (stereo partly shown)"
recorded_measurement = "< 1 nM"

[[record]]
molecule = "C[C@@H]1Cc2c(ccc3[nH]ncc23)[C@@H](c2ccc(N3CCC4(CC3)CC(CN3CCN5c6cc7c(cc6OC[C@@H]5C3)C(=O)N(C3CCC(=O)NC3=O)C7)CO4)cn2)N1CC(F)(F)F (stereo partly shown)"
recorded_measurement = "< 1 nM"

[[record]]
molecule = "COc1cc(N2CCC3(CCN(CC(=O)N4Cc5cc6c(cc5C4)C(=O)N(C4CCC(=O)NC4=O)C6=O)CC3)CC2)ccc1[C@@H]1c2ccc3[nH]ncc3c2C[C@@H](C)N1CC(F)F (stereo partly shown)"
recorded_measurement = "> 10 nM"

[[record]]
molecule = "C[C@@H]1Cc2c(ccc3[nH]ncc23)[C@@H](c2c(F)cc(N3CCC(CN4CCN(c5ccc6c(c5)CN(C5CCC(=O)NC5=O)C6=O)CC4)CC3)cc2F)N1CC(F)F (stereo partly shown)"
recorded_measurement = "< 1 nM"


###

Molecular target: ER (Homo sapiens, UniProt P03372)
Construct: endogenous in cells; probably T47D or MCF-7
Sequence (P03372 1-595): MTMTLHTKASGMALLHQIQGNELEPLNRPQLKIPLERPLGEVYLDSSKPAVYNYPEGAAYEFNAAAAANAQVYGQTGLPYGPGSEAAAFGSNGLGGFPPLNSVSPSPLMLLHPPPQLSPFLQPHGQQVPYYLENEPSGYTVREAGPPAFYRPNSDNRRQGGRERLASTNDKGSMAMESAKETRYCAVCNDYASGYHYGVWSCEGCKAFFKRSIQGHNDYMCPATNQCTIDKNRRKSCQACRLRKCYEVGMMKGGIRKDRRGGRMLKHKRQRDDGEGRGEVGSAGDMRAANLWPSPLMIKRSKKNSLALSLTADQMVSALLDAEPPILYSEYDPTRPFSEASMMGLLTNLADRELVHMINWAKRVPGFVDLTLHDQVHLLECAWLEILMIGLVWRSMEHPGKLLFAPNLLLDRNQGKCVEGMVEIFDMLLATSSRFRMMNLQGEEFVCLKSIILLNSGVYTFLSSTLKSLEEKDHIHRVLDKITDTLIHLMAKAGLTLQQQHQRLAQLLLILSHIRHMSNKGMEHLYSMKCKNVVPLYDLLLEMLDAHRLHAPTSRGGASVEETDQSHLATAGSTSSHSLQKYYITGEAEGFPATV
Experiment: In-cell western blot analysis, relative ER percentage (compounds B1-B126)
Type: cell-based
Details: ER degradation, 16 hours, read-out: ICW DC50
Property: DC50

[[record]]
compound = "C[C@@H]1Cc2c(ccc3[nH]ncc23)[C@@H](c2ccc(N3CCC(CN4CCC5(CC4)COc4c5ccc5c4CN(C4CCC(=O)NC4=O)C5=O)CC3)cn2)N1CC(F)(F)F (stereo partly drawn)"
target_entity = "ER (Homo sapiens, UniProt P03372)"
property = "DC50"
recorded_measurement = "> 0.1 µM"

[[record]]
compound = "C[C@@H]1Cc2c(ccc3[nH]ncc23)[C@@H](c2c(F)cc(N3CC4(CCN(C(=O)CN5CCN6c7cc8c(cc7OC[C@@H]6C5)C(=O)N(C5CCC(=O)NC5=O)C8)C4)C3)cc2F)N1CC(F)F (stereo partly drawn)"
target_entity = "ER (Homo sapiens, UniProt P03372)"
property = "DC50"
recorded_measurement = "< 0.01 µM"

[[record]]
compound = "C[C@@H]1Cc2c(ccc3[nH]ncc23)[C@@H](c2ccc(N3CCC4(CCN(CC(=O)N5Cc6cc7c(cc6C5)C(=O)N(C5CCC(=O)NC5=O)C7=O)CC4)CC3)cn2)N1CC(F)F (stereo partly drawn)"
target_entity = "ER (Homo sapiens, UniProt P03372)"
property = "DC50"
recorded_measurement = "> 0.1 µM"

